- Tested on: MDR1 (P-glycoprotein)
- protocol: MDR1-MDCK effective efflux assay (Transwell, 10 μM, 1 hour), MDR1-MDCK cells
- Assay type: in vitro ADME
- condition.context: dog, MDCK-MDR1, pH 7.4, Papp AB MDR1
measurement.type: Papp A→B at 1 h, 10 μM

Solved cases below.
CC(C)OC(=O)N1Cc2cc(Cl)ccc2-n2c(C3CC4(C3)CN(c3ccncn3)C4)nnc2C1C (stereo not shown) :: > 20 ×10⁻⁶ cm/s
O=C(C1CC1)N1Cc2cc(Cl)ccc2-n2c(nnc2C2CC3(C2)CN(c2ccc(F)cn2)C3)C1 :: < 7 ×10⁻⁶ cm/s

Give the reported Papp A→B at 1 h, 10 μM for "O=C(C1CC1)N1Cc2cc(Cl)ccc2-n2c(nnc2C2CC3(C2)CN(c2ccccn2)C3)C1" (system: MDR1 (P-glycoprotein)). < 7 ×10⁻⁶ cm/s

Would you kindly repeat that for "CCC(=O)N1Cc2cc(Cl)ccc2-n2c(nnc2C2CC3(C2)CN(c2cccc(F)n2)C3)C1" ? < 7 ×10⁻⁶ cm/s

###

Examples of compounds with documented IC50 follow.
- study.system: human Arginine Vasopressin Receptor V2 (AVPR2) (Homo sapiens (Human))
- Sequence (P30518 whole entry): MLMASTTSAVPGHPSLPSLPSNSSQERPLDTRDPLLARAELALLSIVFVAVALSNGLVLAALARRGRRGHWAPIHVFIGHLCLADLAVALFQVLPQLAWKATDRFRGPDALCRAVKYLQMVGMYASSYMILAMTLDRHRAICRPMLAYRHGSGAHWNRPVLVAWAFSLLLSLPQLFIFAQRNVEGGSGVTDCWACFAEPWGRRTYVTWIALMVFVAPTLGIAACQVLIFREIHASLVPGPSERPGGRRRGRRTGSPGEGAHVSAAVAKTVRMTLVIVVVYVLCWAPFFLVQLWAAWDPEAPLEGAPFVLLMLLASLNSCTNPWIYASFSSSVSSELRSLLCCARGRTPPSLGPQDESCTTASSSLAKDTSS
- protocol: Vasopressin V2 receptor antagonist assay (cAMP TR-FRET, 1321N1 cells)

Solved cases below.
CC(C)OC(=O)N1Cc2cc(Cl)ccc2-n2c(C3CC4(C3)CN(c3ncccn3)C4)nnc2C1C (single isomer, unassigned) [Cpd 167A] :: > 1 µM
CC(C)N1Cc2cc(Cl)ccc2-n2c(nnc2C2CC3(C2)CN(c2ncccc2F)C3)C1 :: 0.5 to 1 µM
CC(CF)OC(=O)N1Cc2cc(Cl)ccc2-n2c(nnc2C2CC3(C2)CN(c2ccc(F)cn2)C3)C1 (centres unmarked) :: 0.1 to 0.5 µM
CC1c2nnc(C3CC4(C3)CN(c3ncc(F)cn3)C4)n2-c2ccc(Cl)cc2CN1C(=O)OC1CC1 (single isomer, unassigned) [Cpd 192A] :: > 1 µM
CCOC(=O)N1Cc2cc(Cl)ccc2-n2c(C3CC4(C3)CN(c3ncccn3)C4)nnc2C1C (centres unmarked) [compound 168] :: > 1 µM

Give the reported IC50 for "O=C(C(F)F)N1Cc2cc(Cl)ccc2-n2c(nnc2C2CC3(C2)CN(C(=O)C2(F)CC2)C3)C1" (system: human Arginine Vasopressin Receptor V2 (AVPR2) (Homo sapiens (Human))). > 1 µM

Would you kindly repeat that for "CN1Cc2cc(Cl)ccc2-n2c(nnc2C2CC3(C2)CN(c2cnccn2)C3)C1" ? > 1 µM

Would you kindly repeat that for CC1c2nnc(C3CC4(C3)CN(c3ncccn3)C4)n2-c2ccc(Cl)cc2CN1C(=O)OC1CC1 (centres unmarked) [compound 171] ? > 1 µM

Would you kindly repeat that for COC(=O)N1Cc2cc(Cl)ccc2-n2c(C3CC4(C3)CN(c3ncc(F)cn3)C4)nnc2C1C (single isomer, unassigned) [Cpd 170A] ? 0.5 to 1 µM

Would you kindly repeat that for "CC(C)N1Cc2cc(Cl)ccc2-n2c(nnc2C2CC3(C2)CN(c2cnccn2)C3)C1" ? > 1 µM

Would you kindly repeat that for CCOC(=O)N1Cc2cc(Cl)ccc2-n2c(C3CC4(C3)CN(c3ncc(F)cn3)C4)nnc2C1C (centres unmarked) ? > 1 µM

###

- Test system: wild-type (WT) MDCK cells
- protocol: MDR1-MDCK effective efflux assay (Transwell, 10 μM, 1 hour), wild-type MDCK cells
- Type: in vitro ADME
- condition.context: MDCK
measurement.type: WT ER

Solved cases below.
CC1c2nnc(C3CC4(C3)CN(c3ncccn3)C4)n2-c2ccc(Cl)cc2CN1C(=O)OC1CC1 (stereo not shown) [compound 171] :: ++++
CCC(=O)N1Cc2cc(Cl)ccc2-n2c(nnc2C2CC3(C2)CN(C(=O)C2CC2)C3)C1 [compound 16] :: +
CN1Cc2cc(Cl)ccc2-n2c(nnc2C2CC3(C2)CN(c2ccc(F)cn2)C3)C1 [compound 1] :: ++
CC(C)OC(=O)N1Cc2cc(Cl)ccc2-n2c(nnc2C2CC3(C2)CN(C(=O)C2CC2)C3)C1 [compound 153] :: ++
O=C(C1CC1)N1Cc2cc(Cl)ccc2-n2c(nnc2C2CC3(C2)CN(c2ccc(F)cn2)C3)C1 [compound 74] :: +++

Can you look up the measured WT ER of CC1c2nnc(C3CC4(C3)CN(c3ncc(F)cn3)C4)n2-c2ccc(Cl)cc2CN1C(=O)OC1CC1 (stereo not shown) [compound 192] for me? +++

Would you kindly repeat that for CC(C)OC(=O)N1Cc2cc(Cl)ccc2-n2c(C3CC4(C3)CN(c3ncccn3)C4)nnc2C1C (stereo not shown) [compound 167] ? +++

###

Examples of molecules with documented Papp A→B at 1 h, 10 μM follow.
- System: MDR1 (P-glycoprotein)
- protocol: MDR1-MDCK effective efflux assay (Transwell, 10 μM, 1 hour), MDR1-MDCK cells
- Format: in vitro ADME
- condition.context: dog, MDCK-MDR1, pH 7.4, Papp AB MDR1

Can you look up the measured Papp A→B at 1 h, 10 μM of "O=C(C1COC1)N1Cc2cc(Cl)ccc2-n2c(nnc2C2CC3(C2)CN(c2ccc(F)cn2)C3)C1" for me? < 7 ×10⁻⁶ cm/s

Would you kindly repeat that for CC1c2nnc(C3CC4(C3)CN(c3ccc(F)cn3)C4)n2-c2ccc(Cl)cc2CN1C(=O)OC1CC(F)(F)C1 (stereo not shown) ? > 20 ×10⁻⁶ cm/s

Would you kindly repeat that for CC1c2nnc(C3CC4(C3)CN(c3ncccn3)C4)n2-c2ccc(Cl)cc2CN1C(=O)OC(CF)CF (stereo not shown) ? < 7 ×10⁻⁶ cm/s

Would you kindly repeat that for CC1c2nnc(C3CC4(C3)CN(c3cnccn3)C4)n2-c2ccc(Cl)cc2CN1C(=O)C1(F)CC1 (stereo not shown) ? < 7 ×10⁻⁶ cm/s

Would you kindly repeat that for CC1c2nnc(C3CC4(C3)CN(c3ncc(F)cn3)C4)n2-c2ccc(Cl)cc2CN1C(=O)OC(CF)CF (stereo not shown) ? 10 to 20 ×10⁻⁶ cm/s

Would you kindly repeat that for "O=C(C(F)F)N1Cc2cc(Cl)ccc2-n2c(nnc2C2CC3(C2)CN(c2ccc(F)cn2)C3)C1" ? < 7 ×10⁻⁶ cm/s

Would you kindly repeat that for CC1c2nnc(C3CC4(C3)CN(c3ccc(F)cn3)C4)n2-c2ccc(Cl)cc2CN1C(=O)OC1CCC1 (stereo not shown) ? > 20 ×10⁻⁶ cm/s

###

- study.system: human Arginine Vasopressin Receptor V2 (AVPR2) (Homo sapiens (Human))
- protocol: Vasopressin V2 receptor antagonist assay (cAMP TR-FRET, 1321N1 cells)
measurement.type: IC50

Solved cases below.
COC(=O)N1Cc2cc(Cl)ccc2-n2c(C3CC4(C3)CN(c3cccc(C)n3)C4)nnc2C1C (stereo not drawn) :: 100 to 500 nM
CCN1Cc2cc(Cl)ccc2-n2c(nnc2C2CC3(C2)CN(c2ccccn2)C3)C1 :: 100 to 500 nM
Fc1ccc(N2CC3(CC(c4nnc5n4-c4ccc(Cl)cc4CN(C4CCC4)C5)C3)C2)nc1 :: < 100 nM

Can you look up the measured IC50 of "CC(C)C(=O)N1Cc2cc(Cl)ccc2-n2c(nnc2C2CC3(C2)CN(c2ccccn2)C3)C1" for me? > 1000 nM

Would you kindly repeat that for COC(=O)N1Cc2cc(Cl)ccc2-n2c(C3CC4(C3)CN(c3ncccn3)C4)nnc2C1C (single isomer, unassigned) [Cpd 166A] ? > 1000 nM

Would you kindly repeat that for CC1c2nnc(C3CC4(C3)CN(c3cnccn3)C4)n2-c2ccc(Cl)cc2CN1C(=O)C1(F)CC1 (stereo not drawn) ? > 1000 nM

Would you kindly repeat that for CCOC(=O)N1Cc2cc(Cl)ccc2-n2c(C3CC4(C3)CN(c3ncccn3)C4)nnc2C1C (single isomer, unassigned) [Cpd 168A] ? > 1000 nM

###

- protocol: MDR1-MDCK effective efflux assay (Transwell, 10 μM, 1 hour), wild-type MDCK cells
- Type: in vitro ADME
- condition.context: dog, MDCK, pH 7.4, Papp AB WT
measurement.type: Papp A→B at 1 h, 10 μM

Solved cases below.
CC(C)OC(=O)N1Cc2cc(Cl)ccc2-n2c(C3CC4(C3)CN(c3ccncn3)C4)nnc2C1C (stereo not shown) :: > 20 ×10⁻⁶ cm/s
COC(=O)N1Cc2cc(Cl)ccc2-n2c(C3CC4(C3)CN(c3ccc(F)cn3)C4)nnc2C1C (stereo not shown) :: > 20 ×10⁻⁶ cm/s
CC1c2nnc(C3CC4(C3)CN(c3ncc(F)cn3)C4)n2-c2ccc(Cl)cc2CN1C(=O)OC1CC1 (stereo not shown) :: > 20 ×10⁻⁶ cm/s
CC1c2nnc(C3CC4(C3)CN(c3ccc(F)cn3)C4)n2-c2ccc(Cl)cc2CN1C(=O)OC1CCC1 (stereo not shown) :: 10 to 20 ×10⁻⁶ cm/s
CN1Cc2cc(Cl)ccc2-n2c(nnc2C2CC3(C2)CN(c2cccc(F)n2)C3)C1 :: > 20 ×10⁻⁶ cm/s
COC(=O)N1Cc2cc(Cl)ccc2-n2c(C3CC4(C3)CN(c3ncccn3)C4)nnc2C1C (stereo not shown) :: > 20 ×10⁻⁶ cm/s

Query compound follows.
Can you look up the measured Papp A→B at 1 h, 10 μM of CCOC(=O)N1Cc2cc(Cl)ccc2-n2c(C3CC4(C3)CN(c3ncc(F)cn3)C4)nnc2C1C (stereo not shown) for me? > 20 ×10⁻⁶ cm/s
